# reported pKd; entries follow
experimental-system: T1, His-tagged mouse CD38 (ACRO Biosystems #CD8-M5223) (mouse, UniProt P56528 45-304)
T1 construct: bought recombinant protein with His tag; also called Murine
T1 sequence (looked up): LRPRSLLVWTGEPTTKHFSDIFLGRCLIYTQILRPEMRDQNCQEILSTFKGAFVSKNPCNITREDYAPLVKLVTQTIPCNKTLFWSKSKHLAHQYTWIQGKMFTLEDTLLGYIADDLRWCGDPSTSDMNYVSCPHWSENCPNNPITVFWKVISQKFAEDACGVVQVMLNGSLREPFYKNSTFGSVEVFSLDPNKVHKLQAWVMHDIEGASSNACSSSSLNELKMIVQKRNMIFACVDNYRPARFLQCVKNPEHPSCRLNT
experimental-details: SPR, captured scFv-Fc, His-CD38 analyte;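 also: SPR on a Carterra LSA, scFv-Fc captured by anti-human Fc on HC30M chip, His-tagged CD38 (human, mouse, cynomolgus) flowed as analyte in eight 1:2 steps from 400 nM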
pKd: −log10 of the molar value.

- binder: "40566p1.A12 (scFv, V domains shown, tested as scFv-Fc supernatant; also called 40566p1.Al2) VH: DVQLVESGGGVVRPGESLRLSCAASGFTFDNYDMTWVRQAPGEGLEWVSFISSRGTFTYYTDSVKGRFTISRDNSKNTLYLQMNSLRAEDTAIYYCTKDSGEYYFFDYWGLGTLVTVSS VL: EIVMTQSPATLSVSPGERATFSCRASQSVNSKLAWYQQKPGQAPRLLIYDASRRATGIPDRFSGSGSGTEFTLTISSLQSEDFAVYYCQQYYDWPPLTFGGGTKVEIK"
  pKd: 8.99
- binder: "40596p1.H7 (scFv, V domains shown, tested as scFv-Fc supernatant) VH: EVQLLESGGGLVQPGGSLRLSCAASGFDFSTYAMTWVRQAPGKGLEWVAGNGWSGSFTYYADSVKGRFTVSRDNSKNTLYLQMNSLRAEDTAVYYCTRNPGFGEMDVWGQGTTVTVSS VL: EIVLTQSPGTLRLSPGERATLSCRASQTVGTTLAWYQQKPGQAPRLLIHGASTRATDIPDRFSGSGSGTEFTLTISSLQSEDFADYYCQQYKSWPPLTFGGGTKVEIK"
  pKd: 7.29
- binder: "40596p1.B1 (scFv, V domains shown, tested as scFv-Fc supernatant) VH: EVQLLESGGGLVEPGGSLRLSCAASGFDFSTYAMTWVRQAPGKGLEWVAGNGWSGSFIYYADSVKGRFTISRDNSKNTLYLQMNSLRAEDTAVYYCTRNPGFGEMDVWGQGTTVTVSS VL: EIVLTQSPGTLRLSPGERATLSCKASQTVGTTLAWYQQKPGQAPRLLIYGASTRATGIPDRFSGSGSGTEFTLTISSLQSEDFADYYCQQYKSWPPLTFGGGTKVEIK"
  pKd: 5.04
